Could you please report measured %Inh for the items listed next?
test system: LOK; construct: gene STK10; settings: concentration: 1 μM, replicates: in singlicate; n = 1;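 note: KINOMEscan kinase panel screen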
Give bare numbers, in %.

Past entries and their recorded results:
- Molecule: "CC(=O)Nc1n[nH]c2ncc(-c3ccccc3)cc12 [SB-548492]"
  %Inh [%]: 0
- Molecule: "Clc1cccc(-c2nc(Nc3ccncc3)c3ccccc3n2)c1 [GW873004]"
  %Inh [%]: 59
- Molecule: "Nc1nc(-c2ccc3c(N)n[nH]c3c2)cc(N2CCCCC2)n1 [GSK2228768]"
  %Inh [%]: 0

Would you be so kind as to report %Inh for each listed record?
1. Fc1ccc(-c2ncn(CCCNCc3ccccc3)c2-c2ccncc2)cc1
2. O=C(NCCCN1CCCC1=O)c1cnc(NCc2cc(Cl)ccc2Cl)nc1NC1CCNCC1
3. Clc1cc(Nc2ncnc3cc[nH]c23)ccc1OCc1ccccn1
4. COC(=O)c1c(-c2ccccc2)c2cc(Cl)ccc2c(=O)n1Cc1ccc(S(C)(=O)=O)cc1
5. O=C(Nc1n[nH]c2nc(-c3ccco3)c(Br)cc12)c1ccc(CN2CCCC2)cc1.O=C(O)[C@H](O)[C@@H](O)C(=O)O [SB-742352]
6. Cl.O=S(=O)(c1cccc(F)c1)c1ccc(Nc2ncnc3cc(Br)sc23)cc1Cl [GSK306886]

1: 19; 2: 4; 3: 30; 4: 4; 5: 14; 6: 6

* * *

test system: IGF1R; settings: concentration: 1 μM, replicates: in singlicate; n = 1
Could you please report measured %Inh for the items listed next?
Answers are plain numbers, in %.

Past entries and their recorded results:
- Compound: "Cc1ccc(O)cc1Nc1cc(C(F)(F)F)nc2ccc(-c3ccncc3)cc12 [GW630823]"
  Target Or Test System: "IGF1R"
  %Inh, %: 5
- Compound: "COc1ccc(Nc2nccc(N3CCC(NC(=O)c4cccc(NC(C)=O)c4)C3)n2)cc1 (stereo not drawn) [GSK1379732]"
  Target Or Test System: "IGF1R"
  %Inh, %: 0

Would you be so kind as to report %Inh for each listed record?
1. Nc1nc(-c2ccc3c(N)n[nH]c3c2)cc(N2CCCCC2)n1 [GSK2228768]
2. COc1ccc(NC(=O)Nc2ccc(C)c(-c3ccc(C(=O)Nc4ccncc4)cc3)c2)cc1 [GSK1398475]
3. CC(=O)Nc1n[nH]c2ncc(-c3ccccc3)cc12 [SB-548492]
4. C[C@@H]1CCN(C(=O)CO)C[C@@H]1N(C)c1ncnc2[nH]ccc12
5. CNc1nccc(-c2c(-c3ccc(F)cc3)ncn2CCCN2CCOCC2)n1 [SB-222516]
6. COc1ccc(-c2oc3ncnc(N)c3c2-c2ccc(OC)cc2)cc1 [SB-589132]

0
0
10
0
2
0

Lab note: compound FC(F)(F)c1ccc(-c2nn3ncccc3c2-c2ccnc(Nc3cccc(C(F)(F)F)c3)n2)cc1 [GW828205] tested on IGF1R; recorded %Inh was 3

* * *

tested on: TYK2(JH2domain-pseudokinase); details: concentration: 1 μM, replicates: in singlicate; n = 1
Could you please report measured %Inh for the items listed next?
Answers are plain numbers, in %.

- Molecule: "COc1cc2c(Nc3cccc(NC(=O)c4ccccc4)c3)ncnc2cc1OCCCN1CCOCC1 [GSK223810]"
  Result: 0

Would you be so kind as to report %Inh for each listed record?
1. Clc1ccc(-c2cc(-c3c[nH]nc3-c3ccccn3)ccn2)cc1 [GW681251]
2. c1ccc(-c2ccc3c(-c4ccnc(Nc5ccc6c(c5)OCCO6)n4)cnn3n2)cc1 [GW818941]
3. COc1ccc(Nc2nccc(N3CCC(NC(=O)c4cccc(NC(C)=O)c4)C3)n2)cc1 (stereo not shown) [GSK1379732]

[0, 5, 30]
